Molecular target: T1, APC7524-AA
T1 chain: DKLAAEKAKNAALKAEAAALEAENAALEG
Test: two-hybrid library CCmax;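 also: natural log of median RNA to DNA barcode read ratio; higher means stronger binding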
Settings: mean of both orientations
reported endpoint: interaction score

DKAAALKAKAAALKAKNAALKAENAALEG [APC3354-AA] : -1.71
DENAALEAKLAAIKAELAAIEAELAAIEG [APC4100-AA] : -1.84
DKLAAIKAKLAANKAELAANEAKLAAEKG [APC1987-AA] : -1.75
DKNAALKAELAAIEAELAAIEAKLAANKG [APC5009-AA] : -1.47
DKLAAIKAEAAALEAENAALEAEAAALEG [APC1242-AA] : -1.82
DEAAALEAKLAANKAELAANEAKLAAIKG [APC2981-AA] : -1.71
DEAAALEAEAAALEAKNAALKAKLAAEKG [APC2257-AA] : -1.59
